Attribution: patent US20070088024A1

# System: male Swiss albino mice
# ASSAY_METHOD_TEXT: Writhing test in mice (phenylbenzoquinone-induced writhing reactions)
# Assay type: in vivo
# MEASUREMENT_PARAMETERS: p.o., in mg/kg
Please assign condition not met whenever ED50 is at or above 80, and condition met whenever it is below.

IN: Lab log: compare recorded ED50 with 80; is it strictly lower for CN(C)CCO[C@H](c1ccccc1)c1ccnn1C.O=C(O)Cc1ccccc1Nc1c(Cl)cccc1Cl [R-(+)-Cizolirtine diclofenacate] ?
OUT: condition not met

Further cases:
IN: Lab log: compare recorded ED50 with 80; is it strictly lower for CN(C)CCO[C@@H](c1ccccc1)c1ccnn1C [S-(−)-Cizolirtine] ?
OUT: condition not met

IN: Lab log: compare recorded ED50 with 80; is it strictly lower for CC(C)Cc1ccc([C@H](C)C(=O)O)cc1.CN(C)CCO[C@H](c1ccccc1)c1ccnn1C [R-(+)-Cizolirtine ibuprofenate] ?
OUT: condition not met

IN: Lab log: compare recorded ED50 with 80; is it strictly lower for CN(C)CCO[C@H](c1ccccc1)c1ccnn1C.COc1ccc2cc([C@H](C)C(=O)O)ccc2c1 [R-(+)-Cizolirtine naproxenate] ?
OUT: condition met
